- PROTOCOL NOTES: yeast display, Sf9 membrane polyspecificity reagent, FACS + sequencing; frameworks hold sequencing errors

| MONOMER SEQUENCE | polyreactivity (PSR sort gate) |
| --- | --- |
| QVQLVESGGGLVQAGCSLRLSCAASGSIFSAYSMGWYRPAPGKEREFVAAITRRGGNTYYADSVKGRFTISRDNAKNTVYLQMKSLKPEDTAVYYCAASYNGLWHGDYDYWGQGTQVTVSS | low polyreactivity |
| QVQLVESGAGLVQAGGSLRLSCAASGFTFQNYAMGWYRQAPGKERELVAAIDSRGGRTYYADSVKGRFTISRDNAKNSVYLQMNSLKPEDTAVYYCAVAENKRFGSVGYYYWGQGTQVTVSS | low polyreactivity |
| QVQLVESGGGLVQAGGSLRLSCAASGFTFVRNAMGWYRQAPGNERELVAALSTSAGSTYYADSVKGRFTISRDNAKNTVYLQMNSLKPEDTAVYYSAASASRYFVLAASGGIRYYYWGQGTQVTVSS | high polyreactivity |
| QVQLVESGGGLVQAGGSLRLSSAASGSTFTLYAMGWYRQAPGKERELVATITGSGGSTNYADSVKGRFTISRDNAKNTVYLQMNSLKPEDTAVYYCAADYAVYSFTEFNYWGQGTQVTVSS | high polyreactivity |
| QVQLVDSGGGLVQAGGSLRLSCDASGSTFRGTVMGWYRQAPGKERELVAGIYSGGSTYYADSVKGRFTISRDNAKNTVYLQMNSLKPEDTAVYYCAAYRRQHIIYNDWGQGTQVTVSS | high polyreactivity |
| QVQLVESGGGFVQAGGSLRLSCAASGSIFWTYAMGWYRPAPGNERELVATIPYSDGNTYYADSVKGRFTISRDHAKNTVYLQMNSLKPEDTAVYYGAADTVPDWQEYDYWGQGTQVTVSS | low polyreactivity |
| QVQLVESGGGLVQAGGSLRLSCAASGSIFDRYALGWYRQAPGKERELVAAISTGGSTNYADSVKGRFTISRDNAKNTVYLQMNSLKPEDTAVYYCAAASPYHEYDYWGQGTQVTVSS | low polyreactivity |
| QVQRVESGGGLVQAGGSLRLSCAASGSIFSYYARGLYRQAPGNESELVAVINSGSTNYAASVKGRFTISRDNAKNTVYIHMNSLKPEDTAVYYCAADSLLYLLEQYTTAPYDYWAQGTQVTVSS | low polyreactivity |
| QVQLVESGGGLVQAGGSLRLSCAASGRIFASYAMGWYRQAPGKERELVAAISWGDDSTYYADSVKGRFTISRDNAKNTVYLQMNSLKPEDTAVYYCAAAFWFGPYRLYYWGQGTQVTVSS | high polyreactivity |
| QVQLVESGGGLVQAGGSLRLSCAASGSTFDYNAMGWYRQAPGKERELVAAISARGTSTYYADSVKGRFTISRDNAKTTVYLQMNSLKPEDTAVYYCAARIHTAYYIFGYWGQGTQVTVSS | high polyreactivity |
| QVQLVESGGGLVQAGGSLRLSCSASGRTLTRYTMGWYRKAPGKERELVAGITRSGGSTYYADSVNGRFTISRDNAKNTVYLKMNSLKPEDTAVYYCAVKQRDKFAGGRNDYWGQGTQVTVSS | high polyreactivity |
| QVQLVESGGGLVQAGGSLRLSCAASGSTFVYNAMGWYRQAPGKERELVAAISRGGGITYYADSVKGRFTISRDNAKNTVYLQMNSLKPEDTAVYYCNKSRYKSYSYDYWGQGTQVTVSS | high polyreactivity |
| QVQLVESGGGLVQAGGSLRLSCAASGSIFELNAMGWYRQAPGKERELVAAIRWRTGRTYYADSVKGRFTISRDNAKNTVYLQMNSLKPEDTAVYYCAAPVRSGVRYTLDYWGQGTQVTVSS | high polyreactivity |
| QVQLVESGGGLVQAGGSLRLSCAASGSTFVDNAMGWYRQAPGKERELVAAITNSGSTYYADSVKGRFTISRDNAKNTVYLQMNSHKPEDTAVYYCAARSRVYWARSGYWGQGTQVTVSS | low polyreactivity |
| QVQLVESGGGLVQAGGSLRLSCAASGRIFNSYAMGWYRQAPGKERELVAAISWSGSSTYYADSVKGRFTISRDNAKNTVYLQMNSLKPEDTAVYYCAAGTRYFDYWGQGTQVTVSS | high polyreactivity |
| QVQLVESGGGLVQAGGSLRLSCAASGINFQNYAMGLYRQAPGKEREFVASISFSGASTYYADSVKGRFTISRDKAKNTVYLQMNSLKPDDTAVYYCAARYLYGPKYYYWGQGTQVTVSS | high polyreactivity |
| QVQLVETGGGLVQAGGSLRLSCAASARTFVNYAMGWYRQAPGKEREFVAAITNGGRTNYADSVKGRFTISRDNAKNTVYLQMNSLKQEDTAVYYCAARYRFGGIRRFNYWGQGTQVTVSS | high polyreactivity |
| QVQLVESGGGLVQAGGSLRLSCAASGLILSRNTMGWYRQAPGKERELVAAITRRGGSTYYADSVKGRFTISRDNAKNTVYLQMNSLKPEDTAVYYCRLKVGTTSRWSYDYWGQGTQVTVSS | high polyreactivity |
| QVQLVESGGCLVQAGGSLSLSCAASGSTFPYPYTIGWYRQAPGKERELVAVISRTGGSTFYADSVKGRFTISRDNAKNTVFLQINSLKPEDTAVYYCARQRYEYRTTYYYWGLGTQVTVSS | high polyreactivity |
| QVQLVESGGGIVQAGGSLRLSCAASGSTFSYNAMGWYRQAPGKERELVAAISRGGITNYADSVKGRFTISRDNAKNTVYLQMNSLKPEDTAVYYCNAGYLGGPSYEYWGQGTQVTVSS | low polyreactivity |
| QVQLVESGGGLVQAGGSLRLSCAASGITFGRNTMGWYRQAPGKERELVAAIDSGGNTYAVSVKGRFTISRDNAKNTVYLQMNSLKPEDTAVYYCAVDGGEYSYYGTYDYWGQGTQVTVSS | low polyreactivity |
